Biological target: recombinant human NUDT5 (Homo sapiens)
Assay: NUDT5 inhibitor activity by malachite green reporter assay
Assay type: biochemical
Conditions: Table 4; 6 nM NUDT5, 50 μM ADP-Ribose, 15 minutes at room temperature
Protocol: NUDT5 inhibitors were evaluated using a coupled enzymatic assay with detection of inorganic phosphate (Pi) using the malachite green assay. […] Formation of Pi is quantified based on the green complex (that absorbs at 630 nm) formed between malachite green and molybdate according to published procedure (Baykov, A. A., Evtushenko, O. A. and Avaeva, S. M., Anal Biochem, 171, 266-270 (1988)). […] IC50 values were determined by curve fitting using ExcelFit.
Assay metric: pIC50
Scale: negative log10 of molar concentration, which is what pIC50 denotes.

Example compounds with recorded pIC50:
Compound: Cn1c(=O)c2c(nc(Cl)n2Cc2coc(-c3ccc(Cl)c(Cl)c3)n2)n(C)c1=O
Target under test: recombinant human NUDT5 (Homo sapiens)
pIC50: 7.09
--
Compound: Cn1c(=O)c2c(nc(N3CCNC(C(F)(F)F)C3)n2Cc2nnc(-c3ccc(Cl)c(Cl)c3)o2)n(C)c1=O (stereo not drawn)
Target under test: recombinant human NUDT5 (Homo sapiens)
pIC50: 6.85

Exercise: Kindly state the measured pIC50 obtained for COc1cc(-c2nnc(Cn3c(NCC4CCN(C(=N)N)CC4)nc4c3c(=O)n(C)c(=O)n4C)o2)ccc1C with recombinant human NUDT5 (Homo sapiens).
Key: 6.89

Exercise: Likewise for COc1cc(-c2nnc(Cn3c(N4CCC(CO)CC4)nc4c3c(=O)n(C)c(=O)n4C)o2)ccc1C ?
Key: 6.69

Exercise: Likewise for Cn1c(=O)c2c(nc(Cl)n2Cc2nnc(-c3cccnc3)o2)n(C)c1=O ?
Key: 5.16

Exercise: Likewise for COc1ccc(-c2nnc(Cn3c(N4CCNCC4)nc4c3c(=O)n(C)c(=O)n4C)o2)cc1Cl ?
Key: 7.76

Exercise: Likewise for Cn1c(=O)c2c(nc(-n3cccn3)n2Cc2nnc(-c3ccc(Cl)c(Cl)c3)o2)n(C)c1=O ?
Key: 6.70

Exercise: Likewise for CCOC(=O)c1cnn(-c2nc3c(c(=O)n(C)c(=O)n3C)n2Cc2nnc(-c3ccc(Cl)c(Cl)c3)o2)c1 ?
Key: 6.67

---

Biological target: recombinant human NUDT5 (Homo sapiens, UniProt Q9UKK9)
Test: NUDT5 inhibitor activity by malachite green reporter assay
Format: biochemical
Conditions: Table 3; 6 nM NUDT5, 50 μM ADP-Ribose, 15 minutes at room temperature
Assay metric: IC50 (nM)
Give just the number in nM; leave the unit off.

Example compounds with recorded IC50:
Compound: CC1CCN(c2nc3c(c(=O)n(C)c(=O)n3C)n2Cc2nnc(-c3ccc(Cl)c(Cl)c3)o2)CC1 [Example 10]
Target under test: recombinant human NUDT5 (Homo sapiens, UniProt Q9UKK9)
IC50 [nM]: 22.9
--
Compound: CCCNc1nc2c(c(=O)n(C)c(=O)n2C)n1Cc1nnc(-c2cccc(C)c2)o1 [Example 49]
Target under test: recombinant human NUDT5 (Homo sapiens, UniProt Q9UKK9)
IC50 [nM]: 356
--
Compound: Cn1c(=O)c2c(nc(N3CCCC(F)C3)n2Cc2nnc(-c3ccc(Cl)c(Cl)c3)o2)n(C)c1=O (stereo not drawn) [Example 41]
Target under test: recombinant human NUDT5 (Homo sapiens, UniProt Q9UKK9)
IC50 [nM]: 24.2
--
Compound: CC1CN(c2nc3c(c(=O)n(C)c(=O)n3C)n2Cc2nnc(-c3ccc(Cl)c(Cl)c3)o2)CC(C)N1 (stereo not drawn) [Example 29]
Target under test: recombinant human NUDT5 (Homo sapiens, UniProt Q9UKK9)
IC50 [nM]: 43.8
--
Compound: C[C@@H]1CN(c2nc3c(c(=O)n(C)c(=O)n3C)n2Cc2nnc(-c3ccc(Cl)c(Cl)c3)o2)CCN1 [Example 47]
Target under test: recombinant human NUDT5 (Homo sapiens, UniProt Q9UKK9)
IC50 [nM]: 11.9

Exercise: // lookup IC50 for CN1CCN(c2nc3c(c(=O)n(C)c(=O)n3C)n2Cc2nnc(-c3ccc(Cl)c(Cl)c3)o2)CC1 [Example 18]
Key: 151

Exercise: Likewise for Cn1c(=O)c2c(nc(N3CCC(O)CC3)n2Cc2nnc(-c3ccc(Cl)c(Cl)c3)o2)n(C)c1=O [Example 37] ?
Key: 19.8

---

Target: recombinant human NUDT5 (Homo sapiens)
Test: NUDT5 inhibitor activity by malachite green reporter assay
Type: biochemical
Conditions: Table 3; 6 nM NUDT5, 50 μM ADP-Ribose, 15 minutes at room temperature
Items are presented alongside their recorded IC50.
Give just the number in nM; leave the unit off.

Example compounds with recorded IC50:
Compound: Cn1c(=O)c2c(nc(N3CCC(N)C3)n2Cc2nnc(-c3ccc(Cl)c(Cl)c3)o2)n(C)c1=O (stereo not shown)
Output unit: nM
IC50: 30

Compound: Cn1c(=O)c2c(nc(N3CCNCC3)n2Cc2nnc(-c3ccc(Cl)c(Cl)c3)o2)n(C)c1=O
Output unit: nM
IC50: 29.1

Compound: Cc1cccc(-c2nnc(Cn3c(N4CCN(C)CC4)nc4c3c(=O)n(C)c(=O)n4C)o2)c1
Output unit: nM
IC50: 31.3

Compound: Cc1nc2c(c(=O)n(C)c(=O)n2C)n1Cc1nnc(-c2ccc(Cl)c(Cl)c2)o1
Output unit: nM
IC50: 28.4

Compound: CCS(=O)(=O)c1nc2c(c(=O)n(C)c(=O)n2C)n1Cc1nnc(-c2ccc(Cl)c(Cl)c2)o1
Output unit: nM
IC50: 24.4

Now consider a different compound.
Exercise: // lookup IC50 for Cn1c(=O)c2c(nc(N3CCC4(CC3)NC(=O)NC4=O)n2Cc2nnc(-c3ccc(Cl)c(Cl)c3)o2)n(C)c1=O
Key: 35.1
